Value source: PubChem BioAssay (NCI)

- System: RPMI-8226 leukemia
- experimentalDetails: NCI-60 one-dose screen, 48 h
- experimentalSetup: 10 µM unless noted
The panel holds about 83,000 compounds, 20% with a hit somewhere; the sample as a whole holds those more often. Active and inactive are the calls of the source. How the source made its calls: active means growth percent below 10; inactive means the rest.
Your reply should match one of these outcome classes. active, inactive

Any idea what this test logged for `CCOc1ccc(S(=O)(=O)c2ccc(C)cc2)c2c1no[n+]2[O-]` ?
inactive

For `COc1cc2nc(Nc3ccc(F)cc3)nc(N)c2cc1OC` then?
inactive

For `c1ccc([P+](CCCc2n(Cc3ccc4ccccc4c3)c3ccccc3[n+]2Cc2ccc3ccccc3c2)(c2ccccc2)c2ccccc2)cc1` then?
active

For `NC(=O)c1c(NC(=O)c2ccc(C(F)(F)F)cc2Cl)sc2c1CCC(=O)C2` then?
active

For `Cc1c2c(cn1Cc1ccccc1)CCc1cn[nH]c1-2` then?
inactive

For `[2H]c1nc(Nc2ncc(F)c(-c3cc(F)c4nc(C)n(C(C)C)c4c3)n2)c([2H])c([2H])c1CN1CCN(C([2H])([2H])C([2H])([2H])[2H])CC1` then?
inactive

For COc1ccc(C2CC(c3ccccc3)=NN2c2nc(C)c(C(C)=O)s2)cc1 (configuration not stated) then?
inactive

For `O=C1N/C(=N/O)S/C1=C/c1cn(-c2ccccc2)nc1-c1ccccc1` then?
inactive

For `Cn1cc(Nc2nccc(-c3ccc(N4CCCC4)c(C#N)c3)n2)cn1` then?
inactive

For `COc1ccc(/C=C(\C#N)n2nnc3cc(F)c(F)cc32)c(OC)c1OC` then?
inactive

For `CS(=O)(=O)c1ccc(-c2nc3cc(Cl)ccc3n2CC(=O)N/N=C/c2ccc(Cl)cc2)cc1` then?
active

For `COc1ccc(Oc2nc(Nc3ccc(N4CCOCC4)nc3)ncc2NC(=O)c2cc(OC)cc(OC)c2)cc1` then?
inactive

For `Cc1c2c(cn1Cc1ccccc1)CCc1cn(C)nc1-2` then?
inactive

For CCN(CC)CCCC(C)NCc1ccccc1 (configuration not stated) then?
inactive

For `COc1c(C)cnc(CSc2nc(-c3ccc(C)cc3)cn2-c2ccc(Cl)cc2)c1C` then?
inactive

For `CCOC(=O)Cc1csc2nc(-c3ccccc3)nn12` then?
inactive

For `CCCCCCCC/C=C\CCCCCCCC(=O)Oc1cccc2cccnc12` then?
inactive

For `Cc1cc(N(CCCNc2ccnc3cc(Cl)ccc23)Cc2ccccn2)nc(N2CCOCC2)n1` then?
inactive

For `C[C@]12CCC(=O)C[C@H]1CC[C@@H]1[C@@H]2CC[C@@]2(C)[C@H]1CC[C@]2(O)C(=O)CO` then?
inactive

For `N[C@@H]1CCC[C@H]1NCCCCN1C(=O)c2cccc3cccc(c23)C1=O` then?
inactive

For `CC[C@]1(O)C[C@H]2CN(CCc3c([nH]c4ccccc34)[C@@](C(=O)OC)(c3cc4c(cc3OC)N(C=O)[C@H]3[C@@](O)(C(=O)OC)[C@H](OC(C)=O)[C@]5(CC)C=CCN6CC[C@]43[C@@H]65)C2)C1` then?
active

For Nc1nc(I)c2ncn(C3OC(CO)C(O)C3O)c2n1 (configuration not stated) then?
inactive

For O=C(NCOC(O)C(Cl)(Cl)Cl)NCOC(O)C(Cl)(Cl)Cl (configuration not stated) then?
inactive

For C=C1c2c(C)nn(-c3ccc(O)cc3)c2N(C)C23C[C@@H]1C1(C)c4c(C)nn(-c5ccc(O)cc5)c4N(C)C(C)(C[C@H]12)C3 (some centres not stated) then?
active

For `CCc1c(C(=O)N[C@@H]2c3cc(Cl)ccc3CC[C@@H]2O)[nH]c(C)c1C(C)=O` then?
inactive

For `N#Cc1c(N)n2c(nc1=Nc1ccc(Cl)cc1)sc1cc(Cl)ccc12` then?
inactive

For `CCNCCNc1cc(-c2ccc(C(=O)OC)cc2)c(C#N)c2nc3ccccc3n12` then?
inactive

For `COc1ccc(N(C)c2nc(Cl)nc3cnn(C)c23)cc1` then?
inactive

For `COc1cc2c(cc1OC)-c1ccc3cc4c(cc3c1N(CCCN(C)C)C2)OCO4` then?
inactive

For `CCOC(=O)c1c(C)nc2c(c1N)/C(=C/c1cc(OC)c(OC)c(OC)c1)C(=O)N2c1ccc(OC)cc1` then?
active

For `O=C1NCC(=O)N(Cc2ccco2)[C@H]1Cc1ccccc1` then?
inactive

For `Oc1ccccc1-c1nc2ccccn2c1NCCN1CCOCC1` then?
inactive

For `Clc1ccc2c(NCCCN3CCN(c4nc(N5CCOCC5)nc5ccccc45)CC3)ccnc2c1` then?
active

For `COc1ccc(-c2c(N)n[nH]c2-c2ccccc2O)cc1OC` then?
inactive

For `CO[C@H]1/C=C/O[C@@]2(C)Oc3c(C)c(O)c4c(c3C2=O)C(=O)C(/C=N/N(c2ccccc2)c2ccccc2)=C(NC(=O)/C(C)=C\C=C\[C@H](C)[C@H](O)[C@@H](C)[C@@H](O)[C@@H](C)[C@H](OC(C)=O)[C@@H]1C)C4=O` then?
active

For `CC1(C)N=C(N)N=C(N)N1c1ccc(Cl)c(Cl)c1` then?
inactive

For `C=C1C(=O)O[C@H]2[C@H]1CC/C(C(=O)NCCCCCCCCNC(=O)/C1=C/CC[C@@]3(C)O[C@H]3[C@H]3OC(=O)C(=C)[C@@H]3CC1)=C\CC[C@@]1(C)O[C@@H]21` then?
inactive
